Data credit: ChEMBL document CHEMBL1131422

- study system: Peroxisome proliferator-activated receptor gamma (Mus musculus, UniProt P37238)
- Sequence (P37238 whole entry): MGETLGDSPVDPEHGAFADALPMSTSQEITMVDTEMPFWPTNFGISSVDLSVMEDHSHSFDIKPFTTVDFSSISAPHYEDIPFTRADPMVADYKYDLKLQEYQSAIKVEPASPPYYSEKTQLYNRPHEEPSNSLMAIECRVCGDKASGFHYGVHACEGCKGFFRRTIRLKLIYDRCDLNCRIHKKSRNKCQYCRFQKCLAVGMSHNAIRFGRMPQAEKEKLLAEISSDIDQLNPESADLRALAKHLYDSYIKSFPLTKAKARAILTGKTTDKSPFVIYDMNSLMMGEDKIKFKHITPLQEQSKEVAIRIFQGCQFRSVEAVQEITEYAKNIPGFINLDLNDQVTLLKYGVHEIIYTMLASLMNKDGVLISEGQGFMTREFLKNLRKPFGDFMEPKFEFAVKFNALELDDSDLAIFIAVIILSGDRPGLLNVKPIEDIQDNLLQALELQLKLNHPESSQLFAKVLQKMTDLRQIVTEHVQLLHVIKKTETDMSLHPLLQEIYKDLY
- method notes: Compound was tested functionally in vitro for inducing 50% of the maximum alkaline phosphatase activity (Transactivation) against murine Peroxisome proliferator activated receptor gamma using transfection assay in CV-1 cells
measured quantity: EC50 (nM)
One number for each entry, in nM.

[[record]]
compound = "CN(CCOc1ccc(C[C@H](Nc2ccccc2C(=O)c2ccccc2)C(=O)O)cc1)c1nc2ccccc2o1"
reading_unit = "nM"
result = 4.68


Ask: Report EC50 for CN(CCOc1ccc(C[C@H](Nc2ccccc2C(=O)c2ccccc2)C(=O)O)cc1)c1ccccn1 (stereo in doubt; 18) tested on Peroxisome proliferator-activated receptor gamma (Mus musculus, UniProt P37238).
Result: 13.2
